experiment: clinical; details: human, plasma, oral, 80 mg, AUC0-t Median, Part 1 Cohort 1, 80 mg QD, Cycle 1 Day 1
assay-metric: AUC(0-t) (µg·h/mL)

- CCCCCCCCCCCCCCCC(=O)NCCCC[C@@H](N)C(=O)NCCCNCCCCNCCCN [AMXT 1501, D-lys(palmitoyl)-spermine]: 0.0453

----------
assay: clinical; conditions: human, plasma, oral, 80 mg, Tmax Mean, Part 1 Cohort 1, 80 mg QD, Cycle 1 Day 14
assay-metric: Tmax (h)

- CCCCCCCCCCCCCCCC(=O)NCCCC[C@@H](N)C(=O)NCCCNCCCCNCCCN: 4.67

----------
assay: MALDI-FTICR imaging quantitation of DFMO in whole-body sections of Th-MYCN mice; type: in vivo, mouse; details: male, Th-MYCN, mouse, stomach contents, sc, 2.5 mg/kg, DFMO in Stomach contents, COMBO (1% DFMO + AMXT 1501 2.5 mg/kg SC); mice 284, 286; 96 h
assay-metric: concentration at 96 h (ng/g)

* NCCCC(N)(C(=O)O)C(F)F (stereo not shown) | 111000

----------
assay: clinical; details: human, plasma, oral, Tmax Median, Part 1 Cohort 2, 160 mg QD, Cycle 1 Day 28, +DFMO 500 mg/day
assay-metric: Tmax

• CCCCCCCCCCCCCCCC(=O)NCCCC[C@@H](N)C(=O)NCCCNCCCCNCCCN [AMXT 1501, D-lys(palmitoyl)-spermine] = 4 h

----------
assay: clinical; details: human, plasma, oral, Tmax Mean, Part 1 Cohort 3, 400 mg QD, Cycle 1 Day 28, +DFMO 500 mg/day
assay-metric: Tmax (h)

• CCCCCCCCCCCCCCCC(=O)NCCCC[C@@H](N)C(=O)NCCCNCCCCNCCCN = 11.3

----------
experiment: clinical; conditions: human, plasma, oral, 1200 mg, AUC0-6 hr Mean, Part 1 Cohort 4, 1200 mg QD, Cycle 1 Day 1
assay-metric: AUC(0-t)

* CCCCCCCCCCCCCCCC(=O)NCCCC[C@@H](N)C(=O)NCCCNCCCCNCCCN | 197 ng·h/mL

----------
test: in vivo; conditions: male, Th-MYCN, mouse, intestine contents, sc, 2.5 mg/kg
assay-metric: concentration at 96 h (ng/g)

- CCCCCCCCCCCCCCCC(=O)NCCCC[C@@H](N)C(=O)NCCCNCCCCNCCCN: 8470

----------
Experiment: clinical
Details: human, plasma, oral, AUC0-t Mean, Part 1 Cohort 5, 1800 mg QD, Cycle 1 Day 28, +DFMO 500 mg/day
Protocol: Clinical Trial Outline. […] All solid tumor types are eligible for the trial. […] An expansion cohort was included at the RP2D level to confirm safety and tolerability of the combination. […] Plasma samples were analyzed for AMXT 1501 concentration via a LC/MS^2 procedure (MI-0028-DB-AB; Agilux Laboratories, Worcester, Massachusetts), and the resulting concentration versus time data were used to estimate individual PK parameters using noncompartmental analysis (NCA).
assay-metric: AUC(0-t) (ng·h/mL)

- CCCCCCCCCCCCCCCC(=O)NCCCC[C@@H](N)C(=O)NCCCNCCCCNCCCN: 7370

----------
experiment: clinical; details: human, plasma, oral, 1200 mg, AUC0-6 hr Mean, Part 1 Cohort 4, 1200 mg QD, Cycle 1 Day 14
assay-metric: AUC(0-t)

* CCCCCCCCCCCCCCCC(=O)NCCCC[C@@H](N)C(=O)NCCCNCCCCNCCCN [AMXT 1501, D-lys(palmitoyl)-spermine] | 1130 ng·h/mL
